# PROTOCOL_DESCRIPTION: Restrictive medium S. cerevisiae growth inhibition, OD615, pilot screen of yeast lifespan reduction project, restrictive growth control (AID 706);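 also: modified DeaD lifespan yeast strain shifted to restrictive glucose medium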
# CONDITION_SUMMARY: OD615, 48 h, at 10 µM
The source made the active and inactive calls.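 The calls were made as follows: active = growth inhibition above a set limit, 3 SD over mean compound inhibition, in both replicates (cut at about 43% in these data); inconclusive = above the limit in only one replicate; inactive = at or below the limit in both replicates.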
I would appreciate it if you answered using one of these outcomes: label 1 (active), label 0 (inactive)

Answered cases to consult:
S=c1[nH]nc(-c2ccncc2)n1Cc1ccccc1	label 0
CC(=O)c1ccc(OCC(O)CN2C(C)CCCC2C)cc1 (centres undefined)	label 0
Cc1ccc(O)c(-c2cc(C(F)(F)C(F)F)[nH]n2)c1	label 0
CCOC(=O)c1c(C)n(C)c2ccc(OCC(O)CN(CC)CC)cc12 (centres undefined)	label 0
Cc1ccc(-c2noc(CSc3nnnn3C3CCCCC3)n2)cc1	label 0

Then this molecule:
Ask: Please share the test call associated with Cc1ccc(-c2nc(CS(=O)(=O)CC(=O)N3CC(C)CC(C)C3)c(C)o2)cc1 (centres undefined) .
Result: label 0

###

# PROTOCOL_DESCRIPTION: RAM signaling pathway blockade in yeast – S. cerevisiae, Pdr1DBD-CYC8 efflux-inhibited sensitized strain, primary screen (AID 1298);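 also: 0% = DMSO untreated cells without growth and 100% = 10 µM 1-NA-PP1 full growth; higher means more yeast growth rescued from 5-FOA killing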
# CONDITION_SUMMARY: S. cerevisiae cbk1-as DSE1-URA3 strain, 5-FOA growth OD615, 2 d; at 50 µM; active compounds read high
VALUE_KIND: RAM network inhibition (%)
Answers are plain numbers, in %.

Look over these answered cases.
C=CCn1c(SCC(=C)C)nc2c1c(=O)[nH]c(=O)n2C	1.55
Cc1ccc(S(=O)(=O)/N=C(/Nc2nc(C)cc(C)n2)N2CCOCC2)cc1	4.96
Cc1onc(-c2ccccc2)c1C(=O)Nc1nnc(N(C)Cc2ccccc2)s1	9.12
CCOC(=O)N1CCN(C(=O)C(CC(C)C)NC(=O)C2CCCCC2)CC1 (stereo unspecified)	1.59
O=C(c1ccccc1Cl)N1CCC(c2nc3c(nnn3Cc3ccco3)c(=O)[nH]2)CC1	3.74

Required: RAM network inhibition, one value per compound below.
1. CC(C)(C)N1C(=O)c2ccc(C(=O)Nc3nccs3)cc2C1=O
2. COc1ccc(CC(=O)N2CC3(C)CC2CC(C)(C)C3)cc1OC (stereo unspecified)
3. CCCc1cc(C(=O)Nc2ccc(C)cc2)no1
4. CC1CC(C(O)c2ccccn2)C(=O)C(C(O)c2ccccn2)C1 (stereo unspecified)

Result:
0.63
6.83
1.86
-0.58

Required: RAM network inhibition, one value per compound below.
1. CCc1nnc(NC(=O)C2Cc3ccccc3C(=O)O2)s1 (stereo unspecified)
2. Cc1cc(NC(=O)CSc2nnc(C)c(=O)[nH]2)no1
3. Cc1ccsc1C1C2=C(CC(C)(C)CC2=O)Nc2ncnn21 (stereo unspecified)

Result:
1. 5.85
2. 1.75
3. 4.28

Required: RAM network inhibition, one value per compound below.
1. CCCn1c(CNC(=O)Cc2ccccc2)nc2ccccc21
2. CC(=O)c1ccc(OCC(O)COc2ccc(C(C)=O)cc2)cc1
3. CCc1ccc(NC(=O)CSc2nc3c(c(=O)n(C)c(=O)n3C)n2C)cc1
4. COC(=O)C(CC(C)C)Oc1ccc2c(C)cc(=O)oc2c1 (stereo unspecified)
5. CC1CCC(NC(=O)c2cc3c(=O)n(C)c4ccccc4c3n2C)CC1 (stereo unspecified)
6. O=C(Nc1ccccc1)N(CCc1ccncc1)C1CCCCC1
7. COc1cccc(C(=O)Nc2nnc(-c3cccs3)o2)c1

Result:
1: 2.59; 2: 0.16; 3: 0.68; 4: 1.38; 5: 4.58; 6: -0.83; 7: 0.16

These data points were gathered from PubChem BioAssay.
